Target: rat P2X2 tandem trimer WT–K308A–WT (Rattus norvegicus, UniProt P49653, K308A)
Assay: ATP dose–response, two-electrode voltage clamp in Xenopus oocytes, WT–K308A–WT
Measurement label: EC50 (µM)

- Compound: "Nc1ncnc2c1ncn2[C@@H]1O[C@H](COP(=O)(O)OP(=O)(O)OP(=O)(O)O)[C@@H](O)[C@H]1O [ATP, adenosine triphosphate]"
  Subject of test: "rat P2X2 tandem trimer WT–K308A–WT (Rattus norvegicus, UniProt P49653, K308A)"
  Readout unit: "µM"
  Measured result: 22.9

---

Target: rat P2X2 tandem trimer D315A–WT–WT (Rattus norvegicus, UniProt P49653, D315A)
Sequence (P49653 1-472 D315A): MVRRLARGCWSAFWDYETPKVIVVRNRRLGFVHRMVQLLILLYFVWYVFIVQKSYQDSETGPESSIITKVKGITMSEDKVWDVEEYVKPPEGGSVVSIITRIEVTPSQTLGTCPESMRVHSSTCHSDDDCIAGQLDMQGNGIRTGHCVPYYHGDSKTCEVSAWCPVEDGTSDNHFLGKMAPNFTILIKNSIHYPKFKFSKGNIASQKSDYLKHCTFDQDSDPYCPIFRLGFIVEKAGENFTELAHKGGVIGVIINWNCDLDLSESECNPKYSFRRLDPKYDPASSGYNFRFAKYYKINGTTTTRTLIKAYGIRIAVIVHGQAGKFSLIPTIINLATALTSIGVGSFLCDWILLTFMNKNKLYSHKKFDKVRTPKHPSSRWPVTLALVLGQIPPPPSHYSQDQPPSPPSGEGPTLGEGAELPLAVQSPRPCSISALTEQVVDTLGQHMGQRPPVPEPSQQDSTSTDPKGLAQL
Sequence (P49653 1-472) 2: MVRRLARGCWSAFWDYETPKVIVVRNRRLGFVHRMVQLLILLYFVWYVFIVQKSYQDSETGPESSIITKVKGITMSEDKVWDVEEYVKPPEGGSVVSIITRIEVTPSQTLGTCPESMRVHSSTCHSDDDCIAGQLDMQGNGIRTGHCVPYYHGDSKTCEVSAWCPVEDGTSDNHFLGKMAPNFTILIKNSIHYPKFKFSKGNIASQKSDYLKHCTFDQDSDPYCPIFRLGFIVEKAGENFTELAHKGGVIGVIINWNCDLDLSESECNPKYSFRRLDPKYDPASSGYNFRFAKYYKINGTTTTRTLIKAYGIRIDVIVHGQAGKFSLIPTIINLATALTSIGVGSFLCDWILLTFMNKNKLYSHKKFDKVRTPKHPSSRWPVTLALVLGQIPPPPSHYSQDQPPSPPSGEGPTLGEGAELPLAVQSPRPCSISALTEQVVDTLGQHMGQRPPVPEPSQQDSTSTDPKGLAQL
Sequence (P49653 1-472) 3: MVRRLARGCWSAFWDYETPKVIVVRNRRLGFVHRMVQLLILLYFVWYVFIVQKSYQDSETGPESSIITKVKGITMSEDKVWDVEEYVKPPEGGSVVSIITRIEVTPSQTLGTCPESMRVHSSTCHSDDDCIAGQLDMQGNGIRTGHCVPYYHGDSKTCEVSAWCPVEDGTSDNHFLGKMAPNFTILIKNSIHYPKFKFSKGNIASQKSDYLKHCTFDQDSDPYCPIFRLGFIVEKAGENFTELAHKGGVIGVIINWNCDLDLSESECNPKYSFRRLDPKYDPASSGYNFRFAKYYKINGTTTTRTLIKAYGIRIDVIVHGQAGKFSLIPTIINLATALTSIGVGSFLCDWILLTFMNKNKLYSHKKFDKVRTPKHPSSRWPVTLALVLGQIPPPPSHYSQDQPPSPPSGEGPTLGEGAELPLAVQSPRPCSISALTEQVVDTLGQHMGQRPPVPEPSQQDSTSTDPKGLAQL
Assay: ATP dose–response, two-electrode voltage clamp in Xenopus oocytes, D315A–WT–WT
pEC50: −log10 of the molar value.
Measurement label: pEC50

- Molecule: "Nc1ncnc2c1ncn2[C@@H]1O[C@H](COP(=O)(O)OP(=O)(O)OP(=O)(O)O)[C@@H](O)[C@H]1O [ATP, adenosine triphosphate]"
  Measurement label: "pEC50"
  Measured result: 5.22

---

Molecular target: rat P2X2 tandem trimer WT–WT–WT (Rattus norvegicus)
Experiment: ATP dose–response, two-electrode voltage clamp in Xenopus oocytes, WT–WT–WT
pEC50: −log10 of the molar value.
Measurement label: pEC50

- Molecule: "Nc1ncnc2c1ncn2[C@@H]1O[C@H](COP(=O)(O)OP(=O)(O)OP(=O)(O)O)[C@@H](O)[C@H]1O [ATP, adenosine triphosphate]"
  Measured result: 4.72

---

Molecular target: rat P2X2 tandem trimer K308A–WT–WT (Rattus norvegicus, UniProt P49653, K308A)
Sequence (P49653 1-472 K308A): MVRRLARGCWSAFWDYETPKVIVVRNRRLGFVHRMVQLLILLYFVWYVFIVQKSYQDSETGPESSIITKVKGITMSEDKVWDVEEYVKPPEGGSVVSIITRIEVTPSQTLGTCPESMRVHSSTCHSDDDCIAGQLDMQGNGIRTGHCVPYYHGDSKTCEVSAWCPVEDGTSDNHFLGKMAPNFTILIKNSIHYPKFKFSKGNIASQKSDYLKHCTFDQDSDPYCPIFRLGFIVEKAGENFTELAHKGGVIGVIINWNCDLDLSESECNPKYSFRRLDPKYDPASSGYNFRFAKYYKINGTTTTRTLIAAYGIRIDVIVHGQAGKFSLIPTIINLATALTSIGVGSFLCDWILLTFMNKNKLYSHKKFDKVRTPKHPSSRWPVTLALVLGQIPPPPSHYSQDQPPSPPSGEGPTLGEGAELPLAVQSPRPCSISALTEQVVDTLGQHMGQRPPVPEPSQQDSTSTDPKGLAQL
Sequence (P49653 1-472) 2: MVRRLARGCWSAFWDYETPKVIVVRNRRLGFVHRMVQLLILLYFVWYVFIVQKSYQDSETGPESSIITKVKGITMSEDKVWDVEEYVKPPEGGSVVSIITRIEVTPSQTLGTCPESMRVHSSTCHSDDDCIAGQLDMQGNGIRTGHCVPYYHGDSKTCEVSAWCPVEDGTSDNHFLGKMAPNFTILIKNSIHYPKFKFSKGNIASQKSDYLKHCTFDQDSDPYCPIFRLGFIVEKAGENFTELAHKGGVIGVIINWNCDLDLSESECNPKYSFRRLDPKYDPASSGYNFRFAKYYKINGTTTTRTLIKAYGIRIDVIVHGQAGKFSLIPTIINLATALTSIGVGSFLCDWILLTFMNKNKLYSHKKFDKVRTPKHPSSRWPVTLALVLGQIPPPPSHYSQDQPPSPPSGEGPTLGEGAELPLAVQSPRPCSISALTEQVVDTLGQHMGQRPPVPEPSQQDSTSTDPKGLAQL
Sequence (P49653 1-472) 3: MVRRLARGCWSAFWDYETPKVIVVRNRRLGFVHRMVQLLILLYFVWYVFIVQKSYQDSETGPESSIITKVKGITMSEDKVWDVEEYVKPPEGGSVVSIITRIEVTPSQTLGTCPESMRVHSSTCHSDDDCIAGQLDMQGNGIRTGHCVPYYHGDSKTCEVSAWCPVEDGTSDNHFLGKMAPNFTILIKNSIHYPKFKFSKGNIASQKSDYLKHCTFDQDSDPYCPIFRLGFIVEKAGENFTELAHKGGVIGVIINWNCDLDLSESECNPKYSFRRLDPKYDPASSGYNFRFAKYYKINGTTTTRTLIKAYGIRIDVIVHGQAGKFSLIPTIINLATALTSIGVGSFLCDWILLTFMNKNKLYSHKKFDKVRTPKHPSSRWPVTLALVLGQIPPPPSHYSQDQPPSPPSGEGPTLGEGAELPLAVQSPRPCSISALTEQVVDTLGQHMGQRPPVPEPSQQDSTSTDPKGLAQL
Assay: ATP dose–response, two-electrode voltage clamp in Xenopus oocytes, K308A–WT–WT

- Compound: "Nc1ncnc2c1ncn2[C@@H]1O[C@H](COP(=O)(O)OP(=O)(O)OP(=O)(O)O)[C@@H](O)[C@H]1O [ATP, adenosine triphosphate]"
  EC50 (µM): 42.3
